- Tested on: RA model
- method notes: Rheumatoid arthritis (RA) model (Freund's adjuvant complete)
- Assay type: in vivo, Wistar rats
- condition info: RA rats; gavage 10 mg/kg once a day, 21 days; ELISA

[
  {
    "compound": "O=C(c1ccc(-c2ccccc2Cl)cc1)N(c1ncccc1Cl)[C@@H]1CCCNC1 [CLY-36]",
    "IL-17 in serum / pg/mL": 44.18
  },
  {
    "compound": "O=C(c1ccc(-n2nnc3cccnc32)cc1)N(c1ncccc1Cl)[C@@H]1CCNC1 [CLY-8]",
    "IL-17 in serum / pg/mL": 43.51
  },
  {
    "compound": "CCN1CCC[C@@H](N(C(=O)c2ccc(-n3nnc4cccnc43)cc2)c2ncccc2Cl)C1 [CLY-2]",
    "IL-17 in serum / pg/mL": 46.23
  },
  {
    "compound": "CN1CCC[C@@H](N(C(=O)c2ccc(-n3nnc4cccnc43)cc2)c2ncccc2Cl)C1 [CLY-1]",
    "IL-17 in serum / pg/mL": 46.15
  }
]

====

- System: skin melanocytes
- method notes: Chloasma model of guinea pig: pathomorphological observation of skin melanocytes
- Type: in vivo
- condition info: 0.25% cream once a day, 30 days

[
  {
    "compound": "O=C(c1ccc(-c2ccccc2Cl)cc1)N(c1ncccc1Cl)[C@@H]1CCCNC1 [CLY-36]",
    "Number of melanocytes": 1.98
  },
  {
    "compound": "COC1CCCC(N(C(=O)c2ccc(-n3nnc4cccnc43)cc2)c2ncccc2Cl)C1 (stereo not drawn) [CLY-5]",
    "Number of melanocytes": 1.43
  },
  {
    "compound": "O=C(c1ccc(-c2ccccc2-c2nnn[nH]2)cc1)N(c1ncccc1Cl)[C@@H]1CCCNC1 [CLY-19]",
    "Number of melanocytes": 1.95
  },
  {
    "compound": "O=C(c1ccc(-n2nnc3cccnc32)cc1)N(c1ncccc1Cl)[C@@H]1CCNC1 [CLY-8]",
    "Number of melanocytes": 1.36
  },
  {
    "compound": "Nc1ccccc1-c1ccc(C(=O)N(c2ncccc2Cl)[C@@H]2CCCNC2)cc1 [CLY-39]",
    "Number of melanocytes": 1.39
  },
  {
    "compound": "CN1CCC[C@@H](N(C(=O)c2ccc(-n3nnc4cccnc43)cc2)c2ncccc2Cl)C1 [CLY-1]",
    "Number of melanocytes": 1.93
  }
]

====

In this section we review reported sebaceous gland diameter values for a set of molecules.
- Tested on: rabbit ear acne model
- method notes: Rabbit ear acne model: epidermal thickness, hair follicle area, sebaceous gland diameter
- Format: in vivo, New Zealand rabbits
- condition info: rabbit right ear; intravenous injection 1 mg/kg·d

[
  {
    "molecule": "CNC1CCCC(N(C(=O)c2ccc(-n3nnc4cccnc43)cc2)c2ncccc2Cl)C1 (stereo not shown)",
    "target or test system": "rabbit ear acne model",
    "sebaceous gland diameter": "0.0575 ± 0.0354 mm"
  },
  {
    "molecule": "CN1CCC[C@@H](N(C(=O)c2ccc(-n3nnc4cccnc43)cc2)c2ncccc2Cl)C1",
    "target or test system": "rabbit ear acne model",
    "sebaceous gland diameter": "0.0536 ± 0.0312 mm"
  },
  {
    "molecule": "Nc1ccccc1-c1ccc(C(=O)N(c2ncccc2Cl)[C@@H]2CCCNC2)cc1",
    "target or test system": "rabbit ear acne model",
    "sebaceous gland diameter": "0.0531 ± 0.0306 mm"
  },
  {
    "molecule": "NC1CCCC(N(C(=O)c2ccc(-n3nnc4cccnc43)cc2)c2ncccc2Cl)C1 (stereo not shown)",
    "target or test system": "rabbit ear acne model",
    "sebaceous gland diameter": "0.0552 ± 0.0325 mm"
  }
]

====

In this section we review reported epidermal thickness values for a set of molecules.
- Test system: rabbit ear acne model
- method notes: Rabbit ear acne model: epidermal thickness, hair follicle area, sebaceous gland diameter
- Format: in vivo, New Zealand rabbits
- condition info: rabbit right ear; external use (0.25% CLY cream; positive: Differin)

[
  {
    "molecule": "Nc1ccccc1-c1ccc(C(=O)N(c2ncccc2Cl)[C@@H]2CCCNC2)cc1 [CLY-39]",
    "display unit": "mm",
    "epidermal thickness": 0.2312
  },
  {
    "molecule": "O=C(c1ccc(-n2nnc3cccnc32)cc1)N(c1ncccc1Cl)C1CCCC(O)C1 (stereo not drawn) [CLY-4]",
    "display unit": "mm",
    "epidermal thickness": 0.2436
  },
  {
    "molecule": "O=C(c1ccc(-n2nnc3cccnc32)cc1)N(c1ncccc1Cl)[C@@H]1CCNC1 [CLY-8]",
    "display unit": "mm",
    "epidermal thickness": 0.2237
  }
]

====

- Test system: rabbit ear acne model
- method notes: Rabbit ear acne model: epidermal thickness, hair follicle area, sebaceous gland diameter
- Format: in vivo, New Zealand rabbits
- condition info: rabbit right ear; intravenous injection 1 mg/kg·d
In this section we review reported epidermal thickness values for a set of compounds.

[
  {
    "compound": "O=C(c1ccc(-c2ccccc2Cl)cc1)N(c1ncccc1Cl)[C@@H]1CCCNC1",
    "display unit": "mm",
    "epidermal thickness": 0.2282
  },
  {
    "compound": "O=C(c1ccc(-n2nnc3cccnc32)cc1)N(c1ncccc1Cl)C1CCCC(O)C1 (stereo not shown)",
    "display unit": "mm",
    "epidermal thickness": 0.2363
  },
  {
    "compound": "CNC1CCCC(N(C(=O)c2ccc(-n3nnc4cccnc43)cc2)c2ncccc2Cl)C1 (stereo not shown)",
    "display unit": "mm",
    "epidermal thickness": 0.2316
  },
  {
    "compound": "CN1CCC[C@@H](N(C(=O)c2ccc(-n3nnc4cccnc43)cc2)c2ncccc2Cl)C1",
    "display unit": "mm",
    "epidermal thickness": 0.2287
  },
  {
    "compound": "O=C(c1ccc(-c2ccccc2-c2nnn[nH]2)cc1)N(c1ncccc1Cl)[C@@H]1CCCNC1",
    "display unit": "mm",
    "epidermal thickness": 0.2276
  },
  {
    "compound": "Nc1ccccc1-c1ccc(C(=O)N(c2ncccc2Cl)[C@@H]2CCCNC2)cc1",
    "display unit": "mm",
    "epidermal thickness": 0.2056
  },
  {
    "compound": "NC1CCCC(N(C(=O)c2ccc(-n3nnc4cccnc43)cc2)c2ncccc2Cl)C1 (stereo not shown)",
    "display unit": "mm",
    "epidermal thickness": 0.2295
  },
  {
    "compound": "CCN1CCC[C@@H](N(C(=O)c2ccc(-n3nnc4cccnc43)cc2)c2ncccc2Cl)C1",
    "display unit": "mm",
    "epidermal thickness": 0.2265
  },
  {
    "compound": "O=C(c1ccc(-n2nnc3cccnc32)cc1)N(c1ncccc1Cl)[C@@H]1CCNC1",
    "display unit": "mm",
    "epidermal thickness": 0.1843
  },
  {
    "compound": "O=C(c1ccc(-n2nnc3cccnc32)cc1)N(c1ncccc1Cl)[C@@H]1CCCN1",
    "display unit": "mm",
    "epidermal thickness": 0.2126
  }
]

====

- System: rabbit ear acne model
- method notes: Rabbit ear acne model: epidermal thickness, hair follicle area, sebaceous gland diameter
- Assay type: in vivo, New Zealand rabbits
- condition info: rabbit right ear; external use (0.25% CLY cream; positive: Differin)
Threshold check on sebaceous gland diameter: strictly below 0.08 mm is Yes; on or above 0.08 mm is No.

[
  {
    "molecule": "CCN1CCC[C@@H](N(C(=O)c2ccc(-n3nnc4cccnc43)cc2)c2ncccc2Cl)C1",
    "discrete label": "Yes"
  },
  {
    "molecule": "Nc1ccccc1-c1ccc(C(=O)N(c2ncccc2Cl)[C@@H]2CCCNC2)cc1",
    "discrete label": "Yes"
  },
  {
    "molecule": "CN1CCC[C@@H](N(C(=O)c2ccc(-n3nnc4cccnc43)cc2)c2ncccc2Cl)C1",
    "discrete label": "No"
  },
  {
    "molecule": "O=C(c1ccc(-n2nnc3cccnc32)cc1)N(c1ncccc1Cl)[C@@H]1CCNC1",
    "discrete label": "Yes"
  },
  {
    "molecule": "O=C(c1ccc(-n2nnc3cccnc32)cc1)N(c1ncccc1Cl)C1CCCC(O)C1 (centres unmarked)",
    "discrete label": "No"
  },
  {
    "molecule": "O=C(c1ccc(-n2nnc3cccnc32)cc1)N(c1ncccc1Cl)[C@@H]1CCCN1",
    "discrete label": "Yes"
  },
  {
    "molecule": "CNC1CCCC(N(C(=O)c2ccc(-n3nnc4cccnc43)cc2)c2ncccc2Cl)C1 (centres unmarked)",
    "discrete label": "No"
  },
  {
    "molecule": "COc1ccc(-c2ccc3cc(C(=O)O)ccc3c2)cc1C12CC3CC(CC(C3)C1)C2 [Positive treatment group, adapalene, reference compound]",
    "discrete label": "Yes"
  }
]
